B1: glmS ribozyme (parent)
chain: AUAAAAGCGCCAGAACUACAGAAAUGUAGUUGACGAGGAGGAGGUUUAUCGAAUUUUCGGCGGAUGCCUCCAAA

variants of: B1; experiment: self-cleavage kobs at 10000 uM GlcN6P; higher = faster cleavage; RNA array; settings: with glucosamine-6-phosphate
Fewer inactive variants are shown than the library holds.
Recorded self-cleavage kobs at 10000 uM GlcN6P values for a group of variants are listed next.

Recorded results for 6 variants are shown here.
[
  {
    "Mutation label": "A42U C61U",
    "self-cleavage kobs at 10000 uM GlcN6P": "< 1e-05 s⁻¹"
  },
  {
    "Mutation label": "C11U G60C",
    "self-cleavage kobs at 10000 uM GlcN6P": "< 1e-05 s⁻¹"
  },
  {
    "Mutation label": "C16G G35C A48G U57C G62A C67A U69A",
    "self-cleavage kobs at 10000 uM GlcN6P": "< 1e-05 s⁻¹"
  },
  {
    "Mutation label": "C50U A64U",
    "self-cleavage kobs at 10000 uM GlcN6P": "< 1e-05 s⁻¹"
  },
  {
    "Mutation label": "G44C C58A",
    "self-cleavage kobs at 10000 uM GlcN6P": "< 1e-05 s⁻¹"
  },
  {
    "Mutation label": "A15G G43A C58A",
    "self-cleavage kobs at 10000 uM GlcN6P": "< 1e-05 s⁻¹"
  }
]

Give its self-cleavage kobs at 10000 uM GlcN6P value. Item: G7U C10G A15U C34A G40U C58G G60C G63A < 1e-05 s⁻¹
